Sourced from the RNAGym collection of RNA variant scans (doi:10.7554/elife.80360)

B1: Hairpin Ribozyme (parent)
chain: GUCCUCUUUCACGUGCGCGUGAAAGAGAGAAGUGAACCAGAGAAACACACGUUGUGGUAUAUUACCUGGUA

variants of: B1; assay: self-cleavage, relative activity (ratio to wild type); higher = more cleavage; co-transcriptional
self-cleavage of 0.2 or higher: True. Under 0.2: False.

Before answering, review these 3 worked examples.
MONOMER SEQUENCE: UUCCUCUUUCACGUGCGCGUGAAAGAGAGAAGUGAAGCAGAGAAACACACGUUGUGGUAUAUUACCUGGUA [G1U C37G]
QUALITATIVE LABEL: False

MONOMER SEQUENCE: GUCCUCUUUCACGUGCGCGUGAAAGGGAGAAGUGAACCAGAGAAACACACGUUGUGGUAUAUUACCUCGUA [A26G G68C]
QUALITATIVE LABEL: True

MONOMER SEQUENCE: GUCCUCUUUCACGUGCGCGUGAAAGAGAGAACUGAACCAGAGAAACACACGUUGGGGUAUAUUACCUGGUA [G32C U55G]
QUALITATIVE LABEL: False

Task: Quick check: does GUCCUCUUUCACGUGCGCGUGAACGAGAGAAGUGAACCAGAGAAACAUACGUUGUGGUAUAUUACCUGGUA [A24C C48U] have self-cleavage greater than or equal to 0.2?
Result: True

Task: Follow-up item: GUCCUCUUUCACGUGCGCGUGAAAGAGAGCAGUGGACCAGAGAAACACACGUUGUGGUAUAUUACCUGGUA [A30C A35G]
Result: True

Task: Follow-up item: GUCCUCUUUCACGUGCGCGUGAAAGAGAGAAGUGAACCAGAGAAACACACGUUCUGUUAUAUUACCUGGUA [G54C G57U]
Result: True

Task: Follow-up item: GUCCUCUGUCACGUGCGCGUGAAAGAGACAAGUGAACCAGAGAAACACACGUUGUGGUAUAUUACCUGGUA [U8G G29C]
Result: False

Task: Follow-up item: GUCCUCUUUCAGGUGCGCGUGAAAGAGAGAAGUGAACCAGAGCAACACACGUUGUGGUAUAUUACCUGGUA [C12G A43C]
Result: False
